Cited source: patent US20110118131A1

measured-target: T1, Ep-CAM (UniProt P16422 24-265, limits assumed)
T1 construct: Antigen of the Biacore analysis of ING-1 variants
T1 sequence (looked up): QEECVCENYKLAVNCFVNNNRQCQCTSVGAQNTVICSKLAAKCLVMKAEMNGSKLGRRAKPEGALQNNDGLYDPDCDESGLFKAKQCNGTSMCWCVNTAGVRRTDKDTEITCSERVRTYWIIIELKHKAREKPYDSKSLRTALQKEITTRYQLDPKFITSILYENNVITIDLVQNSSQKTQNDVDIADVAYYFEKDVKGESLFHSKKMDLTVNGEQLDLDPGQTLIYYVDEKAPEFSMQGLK
procedure-details: Biacore, Fab periplasmic extract
measurement-label: fold difference in affinity vs original (fold)
Express the result in fold but write the number alone.

| binder | measurement-label | number |
| --- | --- | --- |
| ING-1 heavy chain Y54H (Fab, V domains shown) VH: QIQLVQSGPELKKPGETVKISCKASGYTFTKYGMNWVKQAPGKGLKWMGWINTHTEEPTYGDDFKGRFAFSLETSASTANLQINNLKSEDTATYFCARFGSAVDYWGQGTSVTVSS VL: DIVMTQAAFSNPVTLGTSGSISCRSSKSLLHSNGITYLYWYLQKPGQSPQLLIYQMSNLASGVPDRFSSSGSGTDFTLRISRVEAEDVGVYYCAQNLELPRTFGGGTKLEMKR | fold difference in affinity vs original | 1 |

Request: I'd like to know its fold difference in affinity vs original. The binder in question is ING-1 heavy chain G33R (Fab, V domains shown) VH: QIQLVQSGPELKKPGETVKISCKASGYTFTKYRMNWVKQAPGKGLKWMGWINTYTEEPTYGDDFKGRFAFSLETSASTANLQINNLKSEDTATYFCARFGSAVDYWGQGTSVTVSS VL: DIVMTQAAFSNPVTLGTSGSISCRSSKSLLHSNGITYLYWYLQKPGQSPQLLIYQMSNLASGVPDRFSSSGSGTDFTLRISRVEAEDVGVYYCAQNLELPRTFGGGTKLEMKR
Response: 0.03

Request: I'd like to know its fold difference in affinity vs original. The binder in question is ING-1 heavy chain G33Q (Fab, V domains shown) VH: QIQLVQSGPELKKPGETVKISCKASGYTFTKYQMNWVKQAPGKGLKWMGWINTYTEEPTYGDDFKGRFAFSLETSASTANLQINNLKSEDTATYFCARFGSAVDYWGQGTSVTVSS VL: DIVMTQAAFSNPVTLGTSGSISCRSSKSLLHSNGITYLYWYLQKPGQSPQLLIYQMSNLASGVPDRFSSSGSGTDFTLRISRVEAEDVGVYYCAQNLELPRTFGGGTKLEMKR
Response: 0.06
